Hey, just so you know, these numbers are from paper PMC8386742.

The following molecules are shown together with reported pIC50 values.
- Test system: MCF-7 cells
- Measurement protocol: MTT antiproliferative assay, MCF-7 cells
- Format: cell-based, human
- Particulars: Homo sapiens, MCF7, 48 h, exposure for 48 h
pIC50: −log10 of the molar value.

Completed entries (count: 2):
Molecule	System	Observed result
COc1ccc(CN(c2cc(OC)c(OC)c(OC)c2)S(=O)(=O)c2ccc(F)cc2)cc1 [Compound 6a]	MCF-7 cells	< 4.40
COc1cc(N(Cc2nc(C)c3ccccc3n2)S(=O)(=O)c2c(C)cc(C)cc2C)cc(OC)c1OC [Compound 10f]	MCF-7 cells	< 4.30

Continue with the molecule presented below.
## Task Specify reported pIC50 for the molecule shown: COc1cc(C(=O)N(Cc2nc(C)c3ccccc3n2)c2cc(OC)c(OC)c(OC)c2)cc(OC)c1OC [Compound 11i]
## Result < 4.40
